Origin of values: ChEMBL document CHEMBL1138863

- assayExplanation: Cytotoxicity against HeLa cells
- Assay type: cell-based
- measurementConditions: human
# CC50 listing for each entry below
attributeMeasured: CC50

{"columns": ["compound", "result"],
 "data": [
  ["BP(=O)(O)COCCn1cnc2c(N)ncnc21", "> 200 µM"],
  ["Nc1ncnc2c1ncn2C[C@H](O)CO [(S)-DHPA]", "> 500 µM"],
  ["BP(=O)(O)CO[C@H](C)Cn1cnc2c(N)ncnc21", "> 200 µM"],
  ["NC(=O)c1ncn([C@@H]2O[C@H](CO)[C@@H](O)[C@H]2O)n1", "> 500 µM"],
  ["C[C@H](Cn1cnc2c(N)ncnc21)OC[PH](=O)O", "> 200 µM"],
  ["O=c1[nH]c(=O)n([C@H]2C[C@H](O)[C@@H](CO)O2)cc1/C=C/Br", "> 500 µM"],
  ["Nc1ncnc2c1ncn2CCOC[PH](=O)O", "> 200 µM"]
]}

###

- assayExplanation: Stability in CEM-SS cell extracts
- Assay type: physicochemical, cell-based
- measurementConditions: human

{"columns": ["compound", "unitTag", "qualifierOperator", "half-life"],
 "data": [
  ["C[C@H](Cn1cnc2c(N)ncnc21)OCP(=O)(O)O [TENOFOVIR ANHYDROUS]", "h", ">", 72],
  ["BP(=O)(O)COCCn1cnc2c(N)ncnc21", "h", "=", 48],
  ["Nc1ncnc2c1ncn2CCOCP(=O)(O)O", "h", ">", 72],
  ["Nc1ncnc2c1ncn2CCOC[PH](=O)O", "h", ">", 72],
  ["BP(=O)(O)CO[C@H](C)Cn1cnc2c(N)ncnc21", "h", "=", 24]
]}

###

- Tested on: Vaccinia virus
- assayExplanation: Antiviral activity against vaccinia virus in HEL cells
- Assay type: functional, organism-based
- measurementConditions: Orthopoxvirus vaccinia

{"columns": ["chemicalSmiles", "EC50"],
 "data": [
  ["C[C@H](Cn1cnc2c(N)ncnc21)OC[PH](=O)O", "> 200 µM"],
  ["NC(=O)c1ncn([C@@H]2O[C@H](CO)[C@@H](O)[C@H]2O)n1", "100 µM"],
  ["O=c1[nH]c(=O)n([C@H]2C[C@H](O)[C@@H](CO)O2)cc1/C=C/Br", "2.4 µM"],
  ["Nc1ncnc2c1ncn2CCOC[PH](=O)O", "> 200 µM"],
  ["Nc1nc2c(ncn2COC(CO)CO)c(=O)[nH]1", "> 100 µM"],
  ["Nc1nc2c(ncn2COCCO)c(=O)[nH]1", "300 µM"]
]}

###

- Test system: Human alphaherpesvirus 1
- assayExplanation: Antiviral activity against HSV1 KOS in HEL cells
- Type: functional, organism-based
- measurementConditions: Human alphaherpesvirus 1, KOS
pEC50: −log10 of the molar value.
Reported pEC50 values follow for various compounds

{"columns": ["chemicalSmiles", "pEC50"],
 "data": [
  ["C[C@H](Cn1cnc2c(N)ncnc21)OC[PH](=O)O", "< 3.70"],
  ["NC(=O)c1ncn([C@@H]2O[C@H](CO)[C@@H](O)[C@H]2O)n1", "< 3.30"],
  ["BP(=O)(O)COCCn1cnc2c(N)ncnc21", "< 3.70"]
]}
